The reported numbers originate from paper PMC4106346.

- system name: sigma-1 receptor (S1R) (Cavia porcellus, UniProt Q60492)
- Sequence (Q60492 whole entry): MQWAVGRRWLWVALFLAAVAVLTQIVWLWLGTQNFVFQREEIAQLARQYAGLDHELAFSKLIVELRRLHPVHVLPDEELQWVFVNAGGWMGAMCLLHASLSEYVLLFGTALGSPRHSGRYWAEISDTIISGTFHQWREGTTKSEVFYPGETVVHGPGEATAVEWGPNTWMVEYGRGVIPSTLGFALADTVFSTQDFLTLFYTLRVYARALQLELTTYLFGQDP
- protocol notes: titration by ligand stabilization of the oligomer, analytical SEC with tryptophan fluorescence
- Type: binding
- Set-up: gene SIGMAR1

{"structure string": "CN(C)CCN(C)CCc1ccc(Cl)c(Cl)c1", "Kd": "~7 nM"}
